# procedureSummary: Pharmacokinetics of released PEGylated protease inhibitor following P.O. administration of prodrugs in rats
# Assay type: in vivo, male Sprague-Dawley rats
# conditionDetails: mPEG6-atazanavir in plasma after PO administration of mPEG6-ATV or of the listed prodrug, rats (n = 4-5)
Please provide measured Tmax Median for the entries that follow.
Answers are plain numbers, in h.

Working through the 3 molecules below one at a time, give Tmax Median for each.
1. CCOCOC(CN(Cc1ccc(-c2ccccn2)cc1)NC(=O)C(NC(=O)OC)C(C)(C)C)C(Cc1ccccc1)NC(=O)C(NC(=O)OCCOCCOCCOCCOCCOCCOC)C(C)(C)C (stereo not shown) [Methyl ethyl ether mPEG6-ATV, mPEG6-Atazanavir Methyl Ethyl Ether]
2. COCCOCCOCCOCCOCCOCCOC(=O)NC(C(=O)NC(Cc1ccccc1)C(CN(Cc1ccc(-c2ccccn2)cc1)NC(=O)C(NC(=O)OC)C(C)(C)C)OP(=O)(O)O)C(C)(C)C (stereo not shown) [mPEG6-ATV-phosphate, mPEG6-atazanavir phosphate]
3. COCCOCCOCCOCCOCCOCCOC(=O)NC(C(=O)NC(Cc1ccccc1)C(CN(Cc1ccc(-c2ccccn2)cc1)NC(=O)C(NC(=O)OC)C(C)(C)C)OC(C)=O)C(C)(C)C (stereo not shown) [Acetyl-mPEG6-Atazanavir, O-Acetyl-mPEG6-Atazanavir]

Result:
2.00
6.13
6.00

Just so you know, measured Tmax Median for CCOC(C)OC(CN(Cc1ccc(-c2ccccn2)cc1)NC(=O)C(NC(=O)OC)C(C)(C)C)C(Cc1ccccc1)NC(=O)C(NC(=O)OCCOCCOCCOCCOCCOCCOC)C(C)(C)C (mixture of isomers) [1-ethoxyethoxy-mPEG6-Atazanivir, ethoxy ethoxy mPEG6-atazanavir] came out at 1.50

====

Kindly supply the reported Cmax Mean values for the records listed here.
# procedureSummary: Pharmacokinetics of released PEGylated protease inhibitor following P.O. administration of prodrugs in rats
# Type: in vivo, male Sprague-Dawley rats
# conditionDetails: mPEG6-atazanavir in plasma after PO administration of mPEG6-ATV or of the listed prodrug, rats (n = 4-5)
Give bare numbers, in ng/mL.

[
  {
    "compound": "CCCC(=O)OC(CN(Cc1ccc(-c2ccccn2)cc1)NC(=O)C(NC(=O)OC)C(C)(C)C)C(Cc1ccccc1)NC(=O)C(NC(=O)OCCOCCOCCOCCOCCOCCOC)C(C)(C)C (stereo not shown) [C3H7CO-mPEG6-ATV, mPEG6-Atazanavir Butyrate]",
    "Cmax Mean [ng/mL]": 2.22
  },
  {
    "compound": "CCNC(=O)OC(CN(Cc1ccc(-c2ccccn2)cc1)NC(=O)C(NC(=O)OC)C(C)(C)C)C(Cc1ccccc1)NC(=O)C(NC(=O)OCCOCCOCCOCCOCCOCCOC)C(C)(C)C (stereo not shown) [mPEG6-ATV-ethylcarbamate, mPEG6-Atazanavir-NH-ethyl carbamate]",
    "Cmax Mean [ng/mL]": 0.634
  },
  {
    "compound": "COCCOCCOCCOCCOCCOCCOC(=O)NC(C(=O)NC(Cc1ccccc1)C(CN(Cc1ccc(-c2ccccn2)cc1)NC(=O)C(NC(=O)OC)C(C)(C)C)OC(=O)C(N)CC(C)C)C(C)(C)C.Cl [mPEG6-Atazanavir-L-Leucine]",
    "Cmax Mean [ng/mL]": 9.49
  }
]

Quick note, Cmax Mean for COCCOCCOCCOCCOCCOCCOC(=O)NC(C(=O)NC(Cc1ccccc1)C(CN(Cc1ccc(-c2ccccn2)cc1)NC(=O)C(NC(=O)OC)C(C)(C)C)OC(=O)COCCOC(=O)C(N)CC(C)C)C(C)(C)C.Cl (stereo not shown) [mPEG6-Atazanavir-CME-Leucine HCl, mPEG6-Atazanavir-CME-Leucine] landed at 8.65
